So I've got a bunch of compounds here, and I need their Tumor Invasion (cell/mm^2) 5 μM values.
Test system: human fibrosarcoma cell line HT1080
Experiment: Cancer cell mobility test (cancer invasion inhibitory action), Boyden double chamber with Matrigel/fibronectin
Type: cell-based
Settings: 5 μM, administered to cells 18 hours in advance; HT1080; counted after 3.5 hours
// return numeric value only (unit: cell/mm^2, not printed)

Return value of Tumor Invasion (cell/mm^2) 5 μM for input CNC(=O)[C@@H](NC(=O)[C@H](CC(C)C)[C@H](O)C(=O)NO)C(C)(C)C [Marimastat, reference compound] , no commentary.
269

Return value of Tumor Invasion (cell/mm^2) 5 μM for input O=C1CCCCCCCCCCCC(=O)OCCO1 [Ethylene tridecanedioate] , no commentary.
226

Return value of Tumor Invasion (cell/mm^2) 5 μM for input CCOC(=O)CCCCCCCCCC=CCCCO [ethyl-15-hydroxy-11(12)-pentadecenoate] , no commentary.
129

Return value of Tumor Invasion (cell/mm^2) 5 μM for input CCCCCCCCCCCC1CCCC(=O)O1 (centres unmarked) [5-hexadecanolide] , no commentary.
144

Return value of Tumor Invasion (cell/mm^2) 5 μM for input O=C(O)CCCCCCCCCCCC(=O)CCCO [16-hydroxy-13-oxohexadecanoic acid] , no commentary.
214

Values compiled from patent US6639089B2.
